Molecular target: HTR1A (Homo sapiens)
Construct: purchased Promega (in-house HiBiT-GPCR construct library, NanoBRET)
Sequence (P08908 whole entry): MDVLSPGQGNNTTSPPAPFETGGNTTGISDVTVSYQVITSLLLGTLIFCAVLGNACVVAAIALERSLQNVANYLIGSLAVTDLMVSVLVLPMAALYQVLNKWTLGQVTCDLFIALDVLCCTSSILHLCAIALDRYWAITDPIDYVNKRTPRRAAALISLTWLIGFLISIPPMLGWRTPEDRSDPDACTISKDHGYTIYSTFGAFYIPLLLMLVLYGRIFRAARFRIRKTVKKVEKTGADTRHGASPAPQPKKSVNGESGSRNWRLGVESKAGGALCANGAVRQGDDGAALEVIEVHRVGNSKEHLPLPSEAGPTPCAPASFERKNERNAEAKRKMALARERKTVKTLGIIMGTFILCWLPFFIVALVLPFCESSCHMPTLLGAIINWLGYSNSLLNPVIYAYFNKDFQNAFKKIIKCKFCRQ
Test: NanoBRET screen HiBiT-HTR1A in HEK293
Type: binding
Conditions: HTR1A; tracer 1μM
Recorded NanoBRET Fold Response by entry
value_type: NanoBRET Fold Response

compound=COc1ccccc1N1CCN(CCCCN2C(=O)c3ccc(CNC(=O)CCOCCOCCOCCOCCNC(=O)CCc4ccc5n4[B-](F)(F)[N+]4=C(c6ccc[nH]6)C=CC4=C5)cc3C2=O)CC1 value_type="NanoBRET Fold Response" readout_number=1.76
compound="Cc1nc2n(c(=O)c1CCN1CCC(c3noc4cc(F)ccc34)CC1)CCCC2OC(=O)NCCOCCOCCOCCOCCNC(=O)CCc1ccc2n1[B-](F)(F)[N+]1=C(c3ccc[nH]3)C=CC1=C2 (stereo not drawn)" value_type="NanoBRET Fold Response" readout_number=1.15
compound=CC(C)N(CC[C@H](c1ccccc1)c1cc(CCNC(=O)CCOCCOCCOCCOCCNC(=O)CCc2ccc3n2[B-](F)(F)[N+]2=C(c4ccc[nH]4)C=CC2=C3)ccc1O)C(C)C value_type="NanoBRET Fold Response" readout_number=1.06
compound=O=C(CCc1ccc2n1[B-](F)(F)[N+]1=C(c3ccc[nH]3)C=CC1=C2)NCCOCCOCCNC(=O)OCCOCCN1CCN(C2=Nc3ccccc3Sc3ccccc32)CC1 value_type="NanoBRET Fold Response" readout_number=1.04
compound=COc1ccccc1N1CCN(CCCCN2C(=O)c3ccc(CNC(=O)CCOCCNC(=O)c4ccc(CNC(=O)CCc5ccc6n5[B-](F)(F)[N+]5=C(c7ccc[nH]7)C=CC5=C6)cc4)cc3C2=O)CC1 value_type="NanoBRET Fold Response" readout_number=1.70
compound=Cc1cc2c(s1)Nc1ccccc1N=C2N1CCN(CCCNC(=O)CCOCCOCCOCCOCCNC(=O)CCc2ccc3n2[B-](F)(F)[N+]2=C(c4ccc[nH]4)C=CC2=C3)CC1 value_type="NanoBRET Fold Response" readout_number=1.06

---

Target: PTGER4 (Homo sapiens, UniProt P35408)
Construct: purchased Promega (in-house HiBiT-GPCR construct library, NanoBRET)
Sequence (P35408 whole entry): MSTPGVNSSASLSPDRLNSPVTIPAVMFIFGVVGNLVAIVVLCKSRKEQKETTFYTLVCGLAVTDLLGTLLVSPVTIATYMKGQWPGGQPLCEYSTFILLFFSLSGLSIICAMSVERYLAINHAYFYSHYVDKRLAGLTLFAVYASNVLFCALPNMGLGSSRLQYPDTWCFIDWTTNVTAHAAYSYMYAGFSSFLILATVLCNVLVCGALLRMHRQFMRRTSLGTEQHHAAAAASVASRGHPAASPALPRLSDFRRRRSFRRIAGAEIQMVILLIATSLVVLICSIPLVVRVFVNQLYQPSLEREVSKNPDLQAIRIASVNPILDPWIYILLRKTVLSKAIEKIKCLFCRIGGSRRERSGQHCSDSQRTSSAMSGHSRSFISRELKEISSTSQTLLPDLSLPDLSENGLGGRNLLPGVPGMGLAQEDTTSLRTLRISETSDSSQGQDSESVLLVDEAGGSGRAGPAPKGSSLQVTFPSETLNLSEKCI
Experiment: NanoBRET screen HiBiT-PTGER4 in HEK293
Type: binding
Conditions: PTGER4; tracer 1μM
Experimental: Each tracer candidate was screened across the entire library of HiBiT-GPCR constructs using NanoBRET as the detection modality. As depicted in Figure 4A, the specificity of interactions was evaluated through decrease in BRET due to competitive displacement of a bound tracer by excess parental compound. Each tracer was analyzed for binding to each HiBiT-GPCR fusion in the absence and in the presence of competing parental compound. […]
Below is a list of entries, each paired with its recorded NanoBRET Fold Response value.
value_type: NanoBRET Fold Response

compound=Cc1cc2c(s1)Nc1ccccc1N=C2N1CCN(CCCNC(=O)CCOCCOCCOCCOCCNC(=O)CCc2ccc3n2[B-](F)(F)[N+]2=C(c4ccc[nH]4)C=CC2=C3)CC1 readout_number=1.07
compound=COc1ccccc1N1CCN(CCCCN2C(=O)c3ccc(CNC(=O)CCOCCNC(=O)c4ccc(CNC(=O)CCc5ccc6n5[B-](F)(F)[N+]5=C(c7ccc[nH]7)C=CC5=C6)cc4)cc3C2=O)CC1 readout_number=0.97
compound=COc1ccccc1N1CCN(CCCCN2C(=O)c3ccc(CNC(=O)CCOCCOCCOCCOCCNC(=O)CCc4ccc5n4[B-](F)(F)[N+]4=C(c6ccc[nH]6)C=CC4=C5)cc3C2=O)CC1 readout_number=1.01
compound=O=C(CCc1ccc2n1[B-](F)(F)[N+]1=C(c3ccc[nH]3)C=CC1=C2)NCCOCCOCCNC(=O)OCCOCCN1CCN(C2=Nc3ccccc3Sc3ccccc32)CC1 readout_number=1.08
compound=CC(C)N(CC[C@H](c1ccccc1)c1cc(CCNC(=O)CCOCCOCCOCCOCCNC(=O)CCc2ccc3n2[B-](F)(F)[N+]2=C(c4ccc[nH]4)C=CC2=C3)ccc1O)C(C)C readout_number=0.99
compound="Cc1nc2n(c(=O)c1CCN1CCC(c3noc4cc(F)ccc34)CC1)CCCC2OC(=O)NCCOCCOCCOCCOCCNC(=O)CCc1ccc2n1[B-](F)(F)[N+]1=C(c3ccc[nH]3)C=CC1=C2 (centres unmarked)" readout_number=1.04
compound=CCCn1c(=O)c2[nH]c(-c3ccc(OCC(=O)NCCNC(=O)CCOCCNC(=O)c4ccc(CNC(=O)CCc5ccc6n5[B-](F)(F)[N+]5=C(c7ccc[nH]7)C=CC5=C6)cc4)cc3)nc2n(CCC)c1=O readout_number=1.01
compound=N#CN=C(NCCCOc1cccc(CN2CCCCC2)c1)NCCNC(=O)CCOCCOCCOCCOCCNC(=O)CCc1ccc2n1[B-](F)(F)[N+]1=C(c3ccc[nH]3)C=CC1=C2 readout_number=1.03
compound=CC(C)N(CC[C@H](c1ccccc1)c1cc(CCNC(=O)c2ccc(CNC(=O)CCc3ccc4n3[B-](F)(F)[N+]3=C(c5ccc[nH]5)C=CC3=C4)cc2)ccc1O)C(C)C readout_number=1.04
compound=O=C(CCOCCOCCOCCOCCNC(=O)CCc1ccc2n1[B-](F)(F)[N+]1=C(c3ccc[nH]3)C=CC1=C2)NCCCN1CCN(C2=Nc3ccccc3Oc3ccc(Cl)cc32)CC1 readout_number=1.07
compound="O=C(CCc1ccc2n1[B-](F)(F)[N+]1=C(c3ccc[nH]3)C=CC1=C2)NCc1ccc(C(=O)NCCOCCC(=O)N[C@@H]2CC[C@@]3(O)[C@H]4Cc5ccc(O)c6c5[C@@]3(CCN4CC3CC3)[C@H]2O6)cc1 [Naltrexone-3-NB590]" readout_number=1.01
